test-summary: Plasma pharmacokinetics of BI 187004 after single oral doses (LC–MS/MS)
setup-conditions: male, human, plasma, po, 360 mg, BI 187004 plasma concentrations, Min, 360 mg single oral, planned time 3 h
observed-property: concentration at 3 h (µM)
Numbers only, in µM.

Query string: Dear colleague, please send me the reported concentration at 3 h for N#Cc1ccc2c(c1)[C@H]1CCCN(C(=O)c3ccc4[nH]cnc4c3)[C@H]1C2 when you can.
Result string: 6.3

###

test-summary: Plasma pharmacokinetics of BI 187004 after single oral doses (LC–MS/MS)
setup-conditions: male, human, plasma, po, 2.5 mg, Plasma concentration, individual subjects, 2.5 mg single oral; planned time 24 h
observed-property: concentration at 24 h (nM)
Answers are plain numbers, in nM.

Query string: Give the measured concentration at 24 h for N#Cc1ccc2c(c1)[C@H]1CCCN(C(=O)c3ccc4[nH]cnc4c3)[C@H]1C2
Result string: 4.19
